Test: absorption maximum in methylene chloride
Format: physicochemical
parameter: λmax [nm] (CH2 Cl2) (nm)
Expressed in nm, but write only the number.

Given CCCCCCCCOc1ccc(N=Nc2ccc(N=Nc3ccc(N=Nc4ccc(OCc5ccc(CCCCC)cc5)c5ccccc45)cc3)cc2)c(CC)c1 , state its recorded λmax [nm] (CH2 Cl2).
441

For CCCCC(CC)COc1ccc(N=Nc2ccc(N=Nc3ccc(N=Nc4ccc(OCc5ccccc5)c5ccccc45)cc3)c3ccccc23)c(CC)c1 (stereo not drawn) then?
486

For CCCCCOc1ccc(COc2ccc(N=Nc3ccc(N=Nc4ccc(N=Nc5ccc(OCC(CC)CCCC)cc5CC)cc4)cc3)c3ccccc23)cc1 (stereo not drawn) then?
435

For CCCCCCCCOc1ccc(N=Nc2ccc(N=Nc3ccc(N=Nc4ccc(OCc5ccc(CCCCC)cc5)cc4C)cc3)cc2)c(CC)c1 then?
418

For CCCCC(CC)COc1ccc(N=Nc2ccc(N=Nc3ccc(N=Nc4ccc(OCc5ccccc5)cc4CC)c(OC)c3)cc2)c2ccccc12 (stereo not drawn) then?
459

For CCCCCCCCCCCCNc1ccc(N=Nc2ccc(N=Nc3ccc(N=Nc4ccc(OCCCCCCCC)cc4CC)cc3)cc2)c2ccccc12 then?
535

* * *

Test: order parameter S in liquid crystal ZLI 2452 (dichroic ratio by polarized absorbance)
Assay type: physicochemical
Conditions: room temperature, in ZLI 2452
parameter: Order parameter S (at RT)
Would you mind answering with just the numeric figure?

Given CCCCCCCCOc1ccc(N=Nc2ccc(N=Nc3ccc(N=Nc4ccc(OCc5ccc(CCCCC)cc5)cc4CC)cc3)cc2)c(C)c1 , state its recorded Order parameter S (at RT).
0.82

For CCCCCCCCOc1ccc(N=Nc2ccc(N=Nc3ccc(N=Nc4ccc(OCc5ccc(CCCCC)cc5)cc4C)cc3)cc2)c(CC)c1 then?
0.83

For CCCCC(CC)COc1ccc(N=Nc2ccc(N=Nc3ccc(N=Nc4ccc(OCc5ccccc5)c5ccccc45)cc3)cc2)c(CC)c1 (stereo not drawn) then?
0.81

* * *

Assay: solubility in liquid crystal ZLI 2452 (saturated solution, comparison of absorbances)
Assay type: physicochemical
Conditions: room temperature, in ZLI 2452
Cut-off 4% on Solubility L [%] (at RT), inclusive. At or above means rule met; below means rule not met.

Is it the case that CCCCC(CC)COc1ccc(N=Nc2ccc(N=Nc3ccc(N=Nc4ccc(OCc5ccccc5)cc4CC)cc3)cc2)c2ccccc12 (stereo not shown) [Example 10] has Solubility L [%] (at RT) reaching or exceeding 4%?
rule met

For CCCCCCCCOc1ccc(N=Nc2ccc(N=Nc3ccc(N=Nc4ccc(OCc5ccc(CCCCC)cc5)cc4C)cc3)cc2)c(CC)c1 [Example 2] then?
rule met

For CCCCCCCCOc1ccc(N=Nc2ccc(N=Nc3ccc(N=Nc4ccc(OCc5ccccc5)cc4CC)cc3)cc2)c(CC)c1 [Example 4] then?
rule met

For CCCCC(CC)COc1ccc(N=Nc2ccc(N=Nc3ccc(N=Nc4ccc(OCc5ccccc5)cc4CC)c4ccccc34)cc2)c2ccccc12 (stereo not shown) [Example 20] then?
rule not met

For CCCCCCCCOc1ccc(N=Nc2ccc(N=Nc3ccc(N=Nc4ccc(OCc5ccc(CCCCC)cc5)c5ccccc45)cc3)cc2)c(CC)c1 [Example 12] then?
rule not met

For CCCCCCCCCCCCNc1ccc(N=Nc2ccc(N=Nc3ccc(N=Nc4ccc(OCC(CC)CCCC)cc4CC)cc3)cc2)c2ccccc12 (stereo not shown) [Example 16] then?
rule met

For CCCCCCCCOc1ccc(N=Nc2ccc(N=Nc3ccc(N=Nc4ccc(OCc5ccc(OCCCCC)cc5)cc4CC)cc3)cc2)c(CC)c1 [Example 5] then?
rule not met

For CCCCC(CC)COc1ccc(N=Nc2ccc(N=Nc3ccc(N=Nc4ccc(OCc5ccccc5)c5ccccc45)cc3)cc2)c(CC)c1 (stereo not shown) [Example 9] then?
rule not met

For CCCCCOc1ccc(COc2ccc(N=Nc3ccc(N=Nc4ccc(N=Nc5ccc(OCC(CC)CCCC)cc5CC)cc4)cc3)c3ccccc23)cc1 (stereo not shown) [Example 13] then?
rule not met

For CCCCCc1ccc(COc2ccc(N=Nc3ccc(N=Nc4ccc(N=Nc5ccc(OCC(CC)CCCC)cc5CC)cc4)cc3)c3ccccc23)cc1 (stereo not shown) [Example 14] then?
rule met

For CCCCC(CC)COc1ccc(N=Nc2ccc(N=Nc3ccc(N=Nc4ccc(OCc5ccccc5)cc4C)cc3)cc2)c(CC)c1 (stereo not shown) [Example 1] then?
rule met

For CCCCC(CC)COc1ccc(N=Nc2ccc(N=Nc3ccc(N=Nc4ccc(OCc5ccccc5)c5ccccc45)cc3)c3ccccc23)c(CC)c1 (stereo not shown) [Example 19] then?
rule not met

For CCCCCCCCOc1ccc(N=Nc2ccc(N=Nc3ccc(N=Nc4ccc(OCc5ccc(OCCCCC)cc5)c5ccccc45)cc3)cc2)c(CC)c1 [Example 11] then?
rule not met
